The measured values listed here are drawn from patent US20170319688A1.

Target: T1, murine RSPO3 (R&D Systems Cat. No. 4120-RS/CF) (murine, UniProt Q2TJ95 22-277, limits assumed)
T1 construct: also called mouse RSPO3
T1 sequence (looked up): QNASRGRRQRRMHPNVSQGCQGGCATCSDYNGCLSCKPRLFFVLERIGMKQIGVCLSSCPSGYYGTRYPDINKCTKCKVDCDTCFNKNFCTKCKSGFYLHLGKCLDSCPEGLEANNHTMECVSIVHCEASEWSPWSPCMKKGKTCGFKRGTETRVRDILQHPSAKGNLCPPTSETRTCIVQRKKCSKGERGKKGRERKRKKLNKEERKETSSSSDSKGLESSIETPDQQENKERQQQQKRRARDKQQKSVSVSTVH
Assay: SPR (BIAcore T200), RSPO3 immobilized, antibody injected, 25 C, 1:1 Langmuir

Binder: chimeric 11C10 (antibody, V domains shown, Chimeric counterpart with the rat 11C10 variable domains) VH: EVQLVESGGGLVQPGRSLKLSCAASGFTFSDYDMAWVRQAPKKGLEWVATIIYDGSRTYYRDSVKGRFTISRANAKSTLYLQMDSLRSEDTATYYCATHDKTFDYWGQGVMVTVSS VL: DIQMTQSPASLSASLGETVTIECRASEDIYSDLAWYQQKPGNSPQLLIYDVNSLIHGVPSRFSGSGSGTQFSLKINNLQSEDVASYFCQQYDNYPNTFGAGTKLELK
kon [M⁻¹ s⁻¹]: 388000
--
Binder: hu11C10.L5H1 (antibody, V domains shown, CDR graft light chain L5 with H1; also called humanized 11C10) VH: EVQLVESGGGVVQPGRSLRLSCAASGFTFSDYDMAWVRQAPGKGLEWVATIIYDGSRTYYRDSVKGRFTISRDNSKNTLYLQMNSLRAEDTAVYYCATHDKTFDYWGQGTMVTVSS VL: DIQLTQSPSSLSASVGDRVTITCRASEDIYSDLAWYQQKPGKAPKLLIYDVNSLIHGVPSRFSGSGSGTDFTLTISSLQPEDFATYYCQQYDNYPNTFGQGTKLEIK
kon [M⁻¹ s⁻¹]: 429000
--
Binder: hu4A6.L4H2 (antibody, V domains shown, CDR graft only (L4, H2); also called humanized 4A6) VH: EVQLVESGGGVVQPGRSLRLSCAASGFTFSDYDMAWVRQAPGKGLEWVATIIYDGSRTYYRDSVKGRFTISRDNSKNTLYLQMNSLRAEDTAVYYCAAHDRSFDYWGQGTMVTVSS VL: DIQMTQSPSSLSASVGDRVTITCLASEDISNDLVWYQQKPGKAPKLLIYAASRLQDGVPSRFSGSGFGTDFTLTISSLQPEDFATYYCQQSYKYLPTFGQGTKLEIK
kon [M⁻¹ s⁻¹]: 183000
--
Binder: chimeric 15F3 (antibody, V domains shown, Chimeric counterpart with the rat 15F3 variable domains) VH: EVQLVESGGGLVQPGRSLKLSCAASGFTFSDYDMAWVRQAPKKGLEWVATIIYDGSRAYFGDSVRGRFTVSRDNTKSTLYLQMDSLRSEDTATYYCTAHDRSFDYWGQGVMVTVSS VL: DIQMTQSPASLSASLGETVSIECLVSEDISNDFVWYQQKSGKSPQLLIYAASRLQDGVPSRFSGSGSGTRFSLRISGMQPEDEAEYFCQQSYKYPPTFGAGTKLELK
kon [M⁻¹ s⁻¹]: 169000
--
Binder: hu15F3.L4H2 (antibody, V domains shown, CDR graft only (L4, H2); also called humanized 15F3) VH: EVQLVESGGGVVQPGRSLRLSCAASGFTFSDYDMAWVRQAPGKGLEWVATIIYDGSRAYFGDSVRGRFTISRDNSKNTLYLQMNSLRAEDTAVYYCTAHDRSFDYWGQGTMVTVSS VL: DIQMTQSPSSLSASVGDRVTITCLVSEDISNDFVWYQQKPGKAPKLLIYAASRLQDGVPSRFSGSGSGTDFTLTISSLQPEDFATYYCQQSYKYPPTFGQGTKLEIK
kon [M⁻¹ s⁻¹]: 190000
